Data origin: the nanobody polyreactivity screen of Harvey et al. (2022)

- ASSAY: yeast display, Sf9 membrane polyspecificity reagent, FACS + sequencing; frameworks hold sequencing errors

{"MONOMER_SEQUENCE": "QVQLVESGGGLVQAGGSLRLSCAASGSTFGSYAMGWYRQAPGKERELVAAISTRGGRTRYADSVKVRFTISRDNAKNTVYLQMNSLKPQDTAVDYCATRIGSRVYNVSGYYRKDDYWGQGTQVTVSS", "polyreactivity (PSR sort gate)": "high polyreactivity"}
{"MONOMER_SEQUENCE": "QVQLVESGGGLVQAGGSLRLSCAASGIIFRTYAMGCYRQAPGKERELVAAITGSGGITYYADSVKGRFTISRDNAKNTVYLQMNSLKPEDTAVYYCAARGTRDGVQRYGYWGQGTQVTVSS", "polyreactivity (PSR sort gate)": "high polyreactivity"}

====

- ASSAY: yeast display, Sf9 membrane polyspecificity reagent, FACS + sequencing; frameworks hold sequencing errors
READOUT_LABEL: polyreactivity (PSR sort gate)

{"MONOMER_SEQUENCE": "QVQLVESGGGLVQGGGSLRLSCAASGRIFLRNAMGSYRQAPGKERELVATITSRGCSTYYADSVKGRFTISRDNAKNTVYLQMNSLKPEDTAVYYCAAYPEYVSGAWYDYWGQGTQVNVSS", "polyreactivity (PSR sort gate)": "low polyreactivity"}
{"MONOMER_SEQUENCE": "QVQLVESGGCLVQAGGSLRLSSAASGSTFRVNAMGWYRQAPGKERELVAAISFSGGSTYYADSVKGRFTISRDNAKNTVYLQMNSLKPEDTAVYYCNVDIYLGGDYYYSRYTWGLDYWGQGTQVTVSS", "polyreactivity (PSR sort gate)": "low polyreactivity"}
{"MONOMER_SEQUENCE": "QVHLVESGGGLVQAGVSLRLSCAASGSIFRINGMGWYRQAPGKERELVAAITRSGGSTFYADSVKGRFTISRDTAKNTVYLQMNSLKPEETAVYYCAAVWYYSTVPARYEYWGQGTQVTVSS", "polyreactivity (PSR sort gate)": "low polyreactivity"}
{"MONOMER_SEQUENCE": "QVQLVESGGGLVQAGGSLRLSCAASGFIFTFYALGWYRQAPGKEREFVASIDWGDGSTYYADSVKGRFTISRDNAKNTVYLQMNSLKPEDTAVYYCAHDYDGYVWDTEYDYWGQGTQVTVSS", "polyreactivity (PSR sort gate)": "low polyreactivity"}
{"MONOMER_SEQUENCE": "QVQLVESGGGLVQAGGSLRLSCAASGFIFRWYAMGWYRQAPGKERELVASITRGGSTNYADSVKGRFTISRDNAKNTVYLQMNSLKPEDTAVYYCAAGWRRAAGIQYWYGYWGQGTQVTVSS", "polyreactivity (PSR sort gate)": "high polyreactivity"}

Task: // returns reported polyreactivity (PSR sort gate) for input QVQLVESGGGLGQAGGSLRLSCAASGSIFYRYAMGWYRKAPGKERELVAAITRRGARTYYADSVKGRFTISRDNAKNTVYLQLNSLKPEDTAVYYCAATYYYWTGWRYVRGDYWGQGTQVTVSS
Output: high polyreactivity

Task: // returns reported polyreactivity (PSR sort gate) for input QVQLVESGGGLVQAGGSLRLSCAASGSTFSDYAMGWYRPEPGKERELDATITSTGDTNYADSVKGRFTMSRDNAKTTVYLQMNSLKPEDTAVYYCAAQHKKYGKRGRWNNFGYWGQGTQVTVSS
Output: low polyreactivity

Task: // returns reported polyreactivity (PSR sort gate) for input QVQLVESGGGLVQAGGSLRLSCAASGSILSHYAMGWYRQAPGKERELVAAITTRGGSTYYADSVKGRFTISRDNAKNTVFLQMNSLKPEDTAVYYCAARGGVDSAYYGYWGQGTQVTVSS
Output: high polyreactivity

Task: // returns reported polyreactivity (PSR sort gate) for input QVQLVESGGGLVQAGGSLRLSCAASGSTFTTYAMGWYRQAPGKERELVAVITDSGGTYYADSVQGRFTISRDNAKNTVYLQMNSLKPEDTAVYYCNRVFPPTDYEFDSWGQGTQVTVSS
Output: low polyreactivity

Task: // returns reported polyreactivity (PSR sort gate) for input QVQLVESGGGLVQAGGSLRLSCAASISSINAMGWYRQAPAKEREVVAASRWSGSSTYYADSVKGRFTISRDNAKNTVYLQMNSLKPEDTAGYYCAADTTTGDRGFDYWGQGTQVTVSS
Output: high polyreactivity

Task: // returns reported polyreactivity (PSR sort gate) for input QVQLVESGGGLVQAGGSLRLSCAASGYTFESYTMGWYRQAPGKEREFVAVISSSDTSTSYADSVKGRFTISRDNAKNTFYLQMNSLKPVDTAVYYCAAYSSPYYITYYWYNYDYWGQGTQVTVSS
Output: low polyreactivity

====

- ASSAY: yeast display, Sf9 membrane polyspecificity reagent, FACS + sequencing; frameworks hold sequencing errors
READOUT_LABEL: polyreactivity (PSR sort gate)

Completed entries (count: 8):
{"MONOMER_SEQUENCE": "QVQLVESGGGLVQAGGSLRLSCAASVRIFRYYVMGWYRQAPGKVRELVAAITSGTSTNFAESVKGRFTISRDNAKNTVYLQMNRLKPEDTAVFYCAVRSPRGGRTRFNSNYWGQGTQVTVSS", "DATA_VALUE": "high polyreactivity"}
{"MONOMER_SEQUENCE": "QVQLVESGGGLVEAGGSLRLSCAASGRTFFSNAMVWYRQAPGKERELVAAINRGGSTYYADSVKGRFTSSRDNAKNTVNLQMNSLKPEDTAVYYCAAGYWSKNSIHYYYWGQGTQVTVSS", "DATA_VALUE": "high polyreactivity"}
{"MONOMER_SEQUENCE": "QVQLVESGGGLVQAGGSLRLSCAASGRIFRGYTMGGYRQAPGKERELVADITKRGGSTDYADSVKGRFTISRDNAKNTVYLQMNSLKPEDTEVYSCAARGPTFGVDYGYWGQGTQVTGSS", "DATA_VALUE": "high polyreactivity"}
{"MONOMER_SEQUENCE": "QVQIVESGGGLVQAGRSLRLSCAASGRTFYRNAMGWYRQAPGKERELVAAITWRTGNTYFADSVKGRFTISRDNAKNTVYLQMNSLKQEDTAVYYCNRVPYYGHPFRVSGDYWGQCTQVTVSS", "DATA_VALUE": "low polyreactivity"}
{"MONOMER_SEQUENCE": "QVQLVESGGGLVQAGGSLRLSCAASGSTFYAYAMGWYRQEPGKERELVAAINSVGSTYYADSVKGRFTISRDNAKNTVYLQMNSLKPEDTAVYYCARGVDYPTSQPPYFRHDYWGQGTQVTVSS", "DATA_VALUE": "low polyreactivity"}
{"MONOMER_SEQUENCE": "QVQLVESGGGLVQAGGSLRLSCAASGRIFRWYAMGWYRQAPGKERELVAAISKSGGTTNYADSVKGRFTISRDNAKNTVYLQMNSLKPEDTAVYYCAARRYPYGGYGYRYDYWGQGTQVTVSS", "DATA_VALUE": "high polyreactivity"}
{"MONOMER_SEQUENCE": "QVQLVESGGGLVQAGGSLRLSCAASGSIFNTYAMGWYRQAPGKERELVAAISRSGDSTYYADSVKGRFTISRDNAKNTVYVQMNSLKPEDSAVYYCATGRTDHGYYYWGQGTQVTVSS", "DATA_VALUE": "high polyreactivity"}
{"MONOMER_SEQUENCE": "QVQLVESGGGLVQAGGSLRLICAASGRTFYRNDMGWSRQAPGKERELVAAISGSGGTTYYADSVKGRFTISRYNAKNTVYLQMNSLNPEDTAVDYCAVDGNFFGEVRPYDYWGQGTQVTVSS", "DATA_VALUE": "low polyreactivity"}

Task: // returns reported polyreactivity (PSR sort gate) for input QVQLVESGGGLVQAGGSLRLSCAPSGIIFYGNAMGWYRPAPGKERELVAAITRSGVRTYYADSVKGRFTISRDNAKKTGYLQMNSLNPEDSAVSYCAAVKPVSSRHYPYDYWGQGTQVTVSS
Output: high polyreactivity

Task: // returns reported polyreactivity (PSR sort gate) for input QVQLVESGGGLVQAGGSLRLSCAASGSIFSSYAMGWYRQAPGKERELVAAISGGGNTYYADSVKGRFTISRDNAKNTVYLQMNSLKPEDTAVYYCATDTYDPFHIEDDYWGQGTQVTVSS
Output: low polyreactivity

Task: // returns reported polyreactivity (PSR sort gate) for input QVQRVESGGGLVQAGGSLRLSCAASGSTFYTNAMGWYRQAPGKERELVASITGGGSTYYADSVKGRFTISRDNAKNTVYLQMNSLKPEDTAVYYCAADNFGGGWEFDSWGQGTQVTVSS
Output: low polyreactivity

====

- ASSAY: yeast display, Sf9 membrane polyspecificity reagent, FACS + sequencing; frameworks hold sequencing errors

{"MONOMER_SEQUENCE": "QVQLVDSGGGLVQAGGSLRLSCAASGRTILINAMGWDRQAPGKERELVAGITRNGGTTYYADSVKGRFTISRDNAKNTVYLQMNSLKPEDTAVYYCAKRYPSWFNYWGQGTQVTVSS", "polyreactivity (PSR sort gate)": "high polyreactivity"}
{"MONOMER_SEQUENCE": "QVQLVESGGGLVQAGGSLRLSCAASGSTFIVYGMGWYRQAPGKEREFVAAITTRSGSTYYADSVKGRFTISRDNAKNTVYLQMNSLKPEDTAVYYCAAVPGTPRHDYWGQGTQVTVSS", "polyreactivity (PSR sort gate)": "high polyreactivity"}
